# Assayed target: bovine cardiac myofibrils (full-length cardiac myosin ATPase in the native sarcomere) (Bos taurus (Bovine))
# Assay text: Skinned bovine cardiac myofibril ATPase assay (PK/LDH-coupled)
# Assay type: biochemical
# Test parameters: Ca2+ activating to 75% of maximal rate, concentration giving 15% inhibition
Property measured: CDMF75 IC15 (µM)
Kindly provide the numeric value in µM only, without the unit symbol.

Param item = `Cc1n[nH]cc1C(=O)N[C@@H]1CCc2cc(-c3noc(C(F)F)n3)ccc21` ; retrieve measured CDMF75 IC15.
0.4

Param item = `Cc1ccnc(-c2ccc3c(c2)CC[C@H]3NC(=O)c2ccnn2C)c1` ; retrieve measured CDMF75 IC15.
2.2

Param item = Cc1nc(C)c(C(=O)NC2CCc3cc(-c4noc(C(F)F)n4)ccc32)o1 (stereo not shown) ; retrieve measured CDMF75 IC15.
1.3

Param item = Cc1nn(C)cc1C(=O)NC1CCc2cc(-c3noc([C@H](C)O)n3)ccc21 (stereo partly shown) ; retrieve measured CDMF75 IC15.
27.5

====

# Assayed target: bovine cardiac myofibrils (full-length cardiac myosin ATPase in the native sarcomere) (Bos taurus (Bovine), UniProt Q9BE39)
# Sequence (Q9BE39 whole entry): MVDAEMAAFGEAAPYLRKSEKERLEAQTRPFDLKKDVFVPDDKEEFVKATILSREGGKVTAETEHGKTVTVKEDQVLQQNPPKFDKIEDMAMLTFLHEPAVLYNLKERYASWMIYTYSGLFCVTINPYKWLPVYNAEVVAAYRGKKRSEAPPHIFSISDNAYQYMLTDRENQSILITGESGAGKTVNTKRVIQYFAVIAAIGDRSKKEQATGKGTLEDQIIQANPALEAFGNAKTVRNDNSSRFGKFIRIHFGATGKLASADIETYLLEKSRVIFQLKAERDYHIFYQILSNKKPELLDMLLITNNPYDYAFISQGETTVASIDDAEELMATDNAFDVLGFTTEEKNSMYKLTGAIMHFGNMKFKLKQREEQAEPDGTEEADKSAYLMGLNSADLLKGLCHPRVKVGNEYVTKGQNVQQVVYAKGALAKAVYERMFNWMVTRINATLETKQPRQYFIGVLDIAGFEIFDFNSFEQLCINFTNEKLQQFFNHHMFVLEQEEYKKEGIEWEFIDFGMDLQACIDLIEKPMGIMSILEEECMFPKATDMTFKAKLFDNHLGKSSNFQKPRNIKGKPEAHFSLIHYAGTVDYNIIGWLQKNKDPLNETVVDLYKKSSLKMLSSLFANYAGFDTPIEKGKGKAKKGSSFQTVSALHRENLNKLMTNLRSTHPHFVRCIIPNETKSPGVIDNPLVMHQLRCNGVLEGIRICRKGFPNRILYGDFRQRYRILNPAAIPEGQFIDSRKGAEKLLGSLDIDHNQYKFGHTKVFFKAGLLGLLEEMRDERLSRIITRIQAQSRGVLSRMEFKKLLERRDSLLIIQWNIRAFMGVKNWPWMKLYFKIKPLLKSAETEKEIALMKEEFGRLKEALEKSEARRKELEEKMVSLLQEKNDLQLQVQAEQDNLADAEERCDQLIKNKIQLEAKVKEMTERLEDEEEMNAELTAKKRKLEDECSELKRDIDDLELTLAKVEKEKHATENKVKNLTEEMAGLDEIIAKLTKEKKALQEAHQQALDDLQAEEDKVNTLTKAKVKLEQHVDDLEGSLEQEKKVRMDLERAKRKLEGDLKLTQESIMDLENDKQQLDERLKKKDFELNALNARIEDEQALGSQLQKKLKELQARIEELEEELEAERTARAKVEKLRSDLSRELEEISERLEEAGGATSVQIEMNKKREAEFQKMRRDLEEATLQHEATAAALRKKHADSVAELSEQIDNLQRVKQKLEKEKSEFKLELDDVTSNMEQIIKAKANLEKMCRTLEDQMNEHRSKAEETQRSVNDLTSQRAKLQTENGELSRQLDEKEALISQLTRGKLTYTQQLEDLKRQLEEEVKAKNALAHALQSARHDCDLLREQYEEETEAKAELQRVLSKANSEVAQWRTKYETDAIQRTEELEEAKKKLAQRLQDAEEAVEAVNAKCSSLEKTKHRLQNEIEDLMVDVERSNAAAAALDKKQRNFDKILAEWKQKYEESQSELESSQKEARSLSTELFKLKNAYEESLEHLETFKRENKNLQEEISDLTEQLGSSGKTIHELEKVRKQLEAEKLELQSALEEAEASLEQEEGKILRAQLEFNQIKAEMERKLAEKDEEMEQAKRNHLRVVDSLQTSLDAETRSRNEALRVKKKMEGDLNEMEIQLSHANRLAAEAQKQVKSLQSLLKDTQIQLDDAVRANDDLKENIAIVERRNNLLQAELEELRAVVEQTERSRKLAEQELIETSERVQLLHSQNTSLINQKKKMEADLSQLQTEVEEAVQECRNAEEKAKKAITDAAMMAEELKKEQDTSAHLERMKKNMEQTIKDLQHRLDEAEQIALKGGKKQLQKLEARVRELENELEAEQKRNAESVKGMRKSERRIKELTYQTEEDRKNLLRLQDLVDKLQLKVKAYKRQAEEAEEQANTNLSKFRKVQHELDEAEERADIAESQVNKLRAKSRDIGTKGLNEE
# Sequence (P85100 whole entry partner): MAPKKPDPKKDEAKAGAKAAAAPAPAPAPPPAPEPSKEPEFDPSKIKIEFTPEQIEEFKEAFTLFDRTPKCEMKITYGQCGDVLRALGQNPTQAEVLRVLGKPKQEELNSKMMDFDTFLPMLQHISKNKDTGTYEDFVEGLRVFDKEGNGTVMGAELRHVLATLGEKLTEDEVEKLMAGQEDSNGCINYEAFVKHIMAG
# Sequence (Q3SZE5 whole entry partner): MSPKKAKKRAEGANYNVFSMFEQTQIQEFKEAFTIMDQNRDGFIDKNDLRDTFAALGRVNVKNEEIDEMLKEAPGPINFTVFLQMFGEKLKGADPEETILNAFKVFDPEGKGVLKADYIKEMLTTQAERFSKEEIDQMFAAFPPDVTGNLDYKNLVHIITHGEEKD
# Assay text: Skinned bovine cardiac myofibril ATPase assay (PK/LDH-coupled)
# Format: biochemical
# Test parameters: Ca2+ activating to 75% of maximal rate, concentration giving 15% inhibition
# Experimental: To evaluate the effect of compounds on the ATPase activity of full-length cardiac myosin in the context of the native sarcomere, skinned myofibril assays were performed. […] Small molecule agents were assessed for their ability to inhibit the steady-state ATPase activity of bovine cardiac myofibrils using pyruvate kinase and lactate dehydrogenase (PK/LDH)-coupled enzyme system. This assay regenerates myosin-produced ADP into ATP by oxidizing NADH, producing an absorbance change at 340 nm. […]
Property measured: CDMF75 IC15 (nM)
Kindly provide the numeric value in nM only, without the unit symbol.

Param item = COCc1nc(-c2ccc3c(c2)CC[C@H]3NC(=O)c2nnc(C)o2)no1 [Compound 698] ; retrieve measured CDMF75 IC15.
900

Param item = `Cc1cc(-c2ccc3c(c2)CC[C@H]3NC(=O)c2ocnc2C)no1` ; retrieve measured CDMF75 IC15.
300

Param item = `CCc1cc(-c2ccc3c(c2)CC[C@H]3NC(=O)c2ccnc(C)c2)no1` ; retrieve measured CDMF75 IC15.
400

Param item = `Cc1c(C(=O)N[C@@H]2CCc3cc(-c4noc(C(F)F)n4)ccc32)cnn1C` ; retrieve measured CDMF75 IC15.
500

Param item = `COCc1nc(-c2ccc3c(c2)OC[C@H]3NC(=O)c2cc(C)nn2C)no1` ; retrieve measured CDMF75 IC15.
700

Param item = O=C(NC1CCc2cc(-c3noc(C(F)F)n3)ccc21)c1cnn2c1CCC2 (stereo not shown) ; retrieve measured CDMF75 IC15.
900

Param item = `Cc1cc(-c2ccc3c(c2)CC[C@H]3NC(=O)c2ccnn2C)cnn1` ; retrieve measured CDMF75 IC15.
39200

Param item = `CCc1nc(-c2ccc3c(c2)CC[C@H]3NC(=O)c2cnc(CO)n2C)no1` ; retrieve measured CDMF75 IC15.
400

Param item = Cn1cc(C(=O)NC2CCc3cc(-c4noc(C(F)F)n4)ccc32)cn1 (stereo not shown) ; retrieve measured CDMF75 IC15.
1100

Param item = `Cc1c(C(=O)N[C@@H]2CCc3cc(-c4noc(C5CCC5)n4)ccc32)cnn1C` ; retrieve measured CDMF75 IC15.
500

Param item = `Cc1cc(C(=O)N[C@@H]2CCc3cc(-c4nc(C(F)F)no4)ccc32)n(C)n1` ; retrieve measured CDMF75 IC15.
1200

Param item = `CCc1nc(-c2ccc3c(c2)CC[C@H]3NC(=O)c2ccnn2CCO)no1` ; retrieve measured CDMF75 IC15.
2900

Param item = `COC(=O)Cc1nc(-c2ccc3c(c2)CC[C@H]3NC(=O)c2cnn(C)c2)no1` ; retrieve measured CDMF75 IC15.
34900

Param item = CCc1nc(-c2ccc3c(c2)CC[C@H]3NC(=O)c2cnn(C(C)CO)c2)no1 (stereo partly shown) ; retrieve measured CDMF75 IC15.
1500

Param item = `Cc1noc(-c2ccc3c(c2)CC[C@H]3NC(=O)c2ccnn2C)n1` ; retrieve measured CDMF75 IC15.
500

Param item = `[2H]C([2H])([2H])c1noc(-c2ccc3c(c2)CC[C@H]3NC(=O)c2nnn(C)n2)n1` ; retrieve measured CDMF75 IC15.
1200

Param item = `Cc1nc(-c2ccc3c(c2)CC[C@H]3NC(=O)c2oc(C)nc2C)no1` ; retrieve measured CDMF75 IC15.
1500

Param item = `CC(C)C(=O)N[C@@H]1CCc2cc(-c3noc(C(F)F)n3)ccc21` ; retrieve measured CDMF75 IC15.
38500

Param item = `Cc1ncc(C(=O)N[C@@H]2COc3cc(-c4noc(C5CC5)n4)ccc32)o1` ; retrieve measured CDMF75 IC15.
700

Param item = `Cc1cc(C(=O)N[C@@H]2CCc3cc(-c4ncc(C)o4)ccc32)ccn1` ; retrieve measured CDMF75 IC15.
3600

Param item = Cc1nn(C)cc1C(=O)NC1CCc2cc(-c3noc(C(F)F)n3)ccc21 (stereo not shown) ; retrieve measured CDMF75 IC15.
800

Param item = Cc1nc(-c2ccc3c(c2)CCC3NC(=O)Nc2ncccn2)no1 (stereo not shown) ; retrieve measured CDMF75 IC15.
39200

Param item = CCn1nc(C)c(C(=O)NC2CCc3cc(-c4noc(C(F)F)n4)ccc32)n1 (stereo not shown) ; retrieve measured CDMF75 IC15.
2300

Param item = CCc1nc(-c2ccc3c(c2)OCC3NC(=O)c2cc(C)nn2C)no1 (stereo not shown) ; retrieve measured CDMF75 IC15.
600

Param item = `Cc1ncc(C(=O)N[C@@H]2COc3cc(-c4noc(C(F)F)n4)ccc32)o1` ; retrieve measured CDMF75 IC15.
700

Param item = `Cn1nccc1C(=O)N[C@@H]1COc2cc(-c3noc(C4CC4)n3)ccc21` ; retrieve measured CDMF75 IC15.
300

Param item = `COCCn1cc(C(=O)N[C@@H]2CCc3cc(-c4noc(COC)n4)ccc32)cn1` ; retrieve measured CDMF75 IC15.
4500

Param item = Cc1nn(C)cc1C(=O)NC1CCc2cc(-c3noc(C(C)C)n3)ccc21 (stereo not shown) ; retrieve measured CDMF75 IC15.
900

Param item = `Cc1cnoc1C(=O)N[C@@H]1CCc2cc(-c3noc(C4COC4)n3)ccc21` ; retrieve measured CDMF75 IC15.
1900

Param item = `CCc1nc(-c2ccc3c(c2)CC[C@H]3NC(=O)c2cnon2)no1` ; retrieve measured CDMF75 IC15.
400

Param item = `CCc1noc(-c2ccc3c(c2)CC[C@H]3NC(=O)c2nnn(C)n2)n1` ; retrieve measured CDMF75 IC15.
500

Param item = `CCc1nc(-c2ccc3c(c2)CC[C@H]3NC(=O)c2ccn(CCO)n2)no1` ; retrieve measured CDMF75 IC15.
1200

Param item = `Cc1noc(-c2ccc3c(c2)CC[C@H]3NC(=O)c2cnc(C)o2)n1` ; retrieve measured CDMF75 IC15.
2600

Param item = `Cc1ncoc1C(=O)N[C@@H]1COc2cc(-c3noc(C4(C)CC4)n3)ccc21` ; retrieve measured CDMF75 IC15.
400
